The measurements presented in this section are drawn from paper PMC11555231.

STUDY_SYSTEM: T1, N-terminally biotinylated human PADI4 (bio-His-PADI4) (human, UniProt Q9UM07 1-663, G55S (read from the plasmid's DNA at D1:p46, codon AGC)); not stated by the …, biotin on the Avi-Tag (BirA))
T1 construct: human PADI4, residues 1-663, cloned into p28BIOH-LIC; The COLDER assays used His-PADI4 from the same plasmid made without BirA (not biotinylated); also called Bio-hPADI4 wt; Avi-His-PADI4; source: E. coli BL21-DE3 co-expressing biotin ligase (BirA), purified (Ni-NTA, S200 size exclusion); not shown: Avi-Tag, N-terminal, kept; His6, N-terminal, kept
T1 sequence (Q9UM07 whole entry G55S/V82A/G112A, the tested form may be a part): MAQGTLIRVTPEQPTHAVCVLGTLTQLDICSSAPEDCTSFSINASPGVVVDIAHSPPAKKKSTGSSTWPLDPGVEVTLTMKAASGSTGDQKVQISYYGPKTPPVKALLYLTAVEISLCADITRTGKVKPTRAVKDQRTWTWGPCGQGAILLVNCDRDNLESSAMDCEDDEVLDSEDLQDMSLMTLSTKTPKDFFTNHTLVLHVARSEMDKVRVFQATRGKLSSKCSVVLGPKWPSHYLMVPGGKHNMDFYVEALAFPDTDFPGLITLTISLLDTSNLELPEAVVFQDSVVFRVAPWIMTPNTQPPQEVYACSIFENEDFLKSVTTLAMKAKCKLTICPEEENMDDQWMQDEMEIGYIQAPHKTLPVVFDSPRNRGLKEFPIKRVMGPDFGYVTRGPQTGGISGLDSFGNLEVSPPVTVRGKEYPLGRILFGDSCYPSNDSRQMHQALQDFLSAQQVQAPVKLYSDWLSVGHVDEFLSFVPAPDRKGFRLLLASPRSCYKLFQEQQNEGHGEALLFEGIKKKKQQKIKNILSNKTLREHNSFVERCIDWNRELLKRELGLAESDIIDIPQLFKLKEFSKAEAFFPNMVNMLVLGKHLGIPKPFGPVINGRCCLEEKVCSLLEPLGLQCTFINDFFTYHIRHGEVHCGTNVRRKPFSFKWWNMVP
PROTOCOL_DETAILS: SPR; single cycle kinetics; Bio-His-PADI4 captured on a Biotin CAPture chip, peptide as analyte; 25 °C; 50 mM HEPES pH 7.5, 150 mM NaCl, 2 mM DTT, 0.05% Tween-20, 0.1% DMSO; CaCl2 concentration not stated for these data; 1:1 binding model
TEST_SETTINGS: both partners purified

BINDER	Kd
YDRHHYRHPKYCG (not fully specified; D-tyrosine at position 1; acetylated N-terminus joined by a thioether bond to the side chain of Cys12 (cyclic); C-terminal amide) [PADI4_3i]	> 10 µM
